assay: Pharmacokinetic (PK) study, oral gavage, plasma LC-MS/MS; conditions: female, Sprague Dawley, rat, po, 10 mg/kg
property: half-life (h)

• Cc1cc(C)cc(C(=O)N(NC(=O)c2ccc3c(c2C)OCCOB3O)C(C)(C)C)c1 = 11

* * *

assay: Pharmacokinetic (PK) study, oral gavage, plasma LC-MS/MS; conditions: female, Sprague Dawley, rat, po, 10 mg/kg, Cmax, female Sprague Dawley rats, oral gavage 10 mg/kg, Capryol 90/Triacetin (1:1, v/v)
property: Cmax (ng/mL)

• CC[C@@H](N(NC(=O)c1ccc2c(c1F)B(O)OC2)C(=O)c1cc(C)cc(C)c1)C(C)(C)C = 11200
• CCC[C@@H](N(NC(=O)c1ccc(B(O)O)c(F)c1)C(=O)c1cc(C)cc(C)c1)C(C)(C)C = 2730
• CCC[C@@H](N(NC(=O)c1cccc(OC)c1CC)C(=O)c1cc(C)cc(C)c1)C(C)(C)C [Cpd. B, reference compound] = 116
• Cc1cc(C)cc(C(=O)N(NC(=O)c2ccc3c(c2F)B(O)OC3)C(C)(C)C)c1 = 2650
